Entries with reported AC50 on Mu-type opioid receptor (Homo sapiens, UniProt P35372)
Sequence (P35372 whole entry): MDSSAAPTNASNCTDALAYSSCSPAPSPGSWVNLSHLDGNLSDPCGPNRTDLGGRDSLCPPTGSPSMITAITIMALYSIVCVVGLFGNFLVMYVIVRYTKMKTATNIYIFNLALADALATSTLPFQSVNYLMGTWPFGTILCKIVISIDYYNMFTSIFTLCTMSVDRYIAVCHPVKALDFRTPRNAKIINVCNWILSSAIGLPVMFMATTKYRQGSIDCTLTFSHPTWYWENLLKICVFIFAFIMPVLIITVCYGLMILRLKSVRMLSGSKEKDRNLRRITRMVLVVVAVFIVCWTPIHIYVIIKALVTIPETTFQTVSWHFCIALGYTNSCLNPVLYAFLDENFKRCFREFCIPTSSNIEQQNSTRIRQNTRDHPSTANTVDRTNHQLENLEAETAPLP

Need AC50 of CC(C)C[C@H](NC(=O)[C@@H](O)[C@H](N)Cc1ccccc1)C(=O)O , thanks.
> 30 µM

Need AC50 of C=C1CC[C@H](O)C/C1=C/C=C1\CCC[C@]2(C)[C@@H]([C@H](C)CCCC(C)C)CC[C@@H]12 , thanks.
> 30 µM

Need AC50 of C[Se]CC[C@H](N)C(=O)O , thanks.
> 30 µM

Need AC50 of N=C(N)N/N=C/c1c(Cl)cccc1Cl , thanks.
5.18 µM

###

Molecular target: Thromboxane A2 receptor (Homo sapiens); further: assay procedure not described here
Sequence (P21731 whole entry): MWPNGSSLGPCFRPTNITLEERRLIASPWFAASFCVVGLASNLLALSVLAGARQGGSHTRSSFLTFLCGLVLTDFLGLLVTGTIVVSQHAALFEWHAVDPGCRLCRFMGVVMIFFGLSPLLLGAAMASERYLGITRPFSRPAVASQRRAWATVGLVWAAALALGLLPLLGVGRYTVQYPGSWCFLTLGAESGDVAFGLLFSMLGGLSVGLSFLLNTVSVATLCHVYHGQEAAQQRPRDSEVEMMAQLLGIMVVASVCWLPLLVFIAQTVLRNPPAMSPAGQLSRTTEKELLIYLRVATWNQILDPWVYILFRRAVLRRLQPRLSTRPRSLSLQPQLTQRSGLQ
Format: functional, cell-based
Answer each item with its documented AC50.

What measured AC50 is associated with C#C[C@]1(O)C=C[C@H]2[C@@H]3CCC4=CC(=O)CC[C@@H]4[C@H]3CC[C@@]21CC [GESTODENE] on Thromboxane A2 receptor (Homo sapiens)?
> 30 µM

What measured AC50 is associated with C[C@@H]1C[C@H]2[C@@H]3C[C@H](F)C4=CC(=O)C=C[C@]4(C)[C@@]3(F)[C@@H](O)C[C@]2(C)[C@@]1(OC(=O)c1ccco1)C(=O)SCF [FLUTICASONE FUROATE] on Thromboxane A2 receptor (Homo sapiens)?
> 30 µM

What measured AC50 is associated with CCC[C@H](N[C@@H](C)C(=O)N1[C@H](C(=O)O)C[C@@H]2CCCC[C@@H]21)C(=O)OCC [PERINDOPRIL] on Thromboxane A2 receptor (Homo sapiens)?
> 30 µM

What measured AC50 is associated with CCCCC(CC)CN1CN(CC(CC)CCCC)CC(C)(N)C1 (stereo not drawn) [HEXETIDINE] on Thromboxane A2 receptor (Homo sapiens)?
> 30 µM

What measured AC50 is associated with CC(=O)OCC(=O)[C@@]1(O)CC[C@H]2[C@@H]3CCC4=CC(=O)CC[C@]4(C)[C@H]3[C@@H](O)C[C@@]21C [HYDROCORTISONE ACETATE] on Thromboxane A2 receptor (Homo sapiens)?
> 30 µM

What measured AC50 is associated with Cc1oc(=O)oc1COC(=O)[C@@H]1N2C(=O)[C@@H](NC(=O)[C@H](N)c3ccccc3)[C@H]2SC1(C)C [LENAMPICILLIN] on Thromboxane A2 receptor (Homo sapiens)?
24.9 µM

What measured AC50 is associated with O=C(/C=C/c1cccc(S(=O)(=O)Nc2ccccc2)c1)NO [BELINOSTAT] on Thromboxane A2 receptor (Homo sapiens)?
> 30 µM

What measured AC50 is associated with C[N+](C)(C)CCOP(=O)(O)OP(=O)([O-])OC[C@H]1O[C@@H](n2ccc(N)nc2=O)[C@H](O)[C@@H]1O [CITICOLINE] on Thromboxane A2 receptor (Homo sapiens)?
> 30 µM

What measured AC50 is associated with CC1(C)S[C@@H]2[C@H](/N=C/N3CCCCCC3)C(=O)N2[C@H]1C(=O)O [AMDINOCILLIN] on Thromboxane A2 receptor (Homo sapiens)?
> 30 µM

What measured AC50 is associated with CC[C@@H]1C[C@]1(NC(=O)[C@@H]1C[C@@H]2CN1C(=O)[C@H](C(C)(C)C)NC(=O)OCC(C)(C)CCCCc1cccc3c1CN(C3)C(=O)O2)C(=O)NS(=O)(=O)C1CC1 on Thromboxane A2 receptor (Homo sapiens)?
> 3 µM

What measured AC50 is associated with Nc1c(CC(=O)O)cccc1C(=O)c1ccc(Br)cc1 [BROMFENAC] on Thromboxane A2 receptor (Homo sapiens)?
> 30 µM

What measured AC50 is associated with O=C(NNCS(=O)(=O)O)c1ccncc1 [METHANIAZIDE] on Thromboxane A2 receptor (Homo sapiens)?
> 30 µM

What measured AC50 is associated with COc1cc(C(C)=O)ccc1OCCCN1CCC(c2noc3cc(F)ccc23)CC1 [ILOPERIDONE] on Thromboxane A2 receptor (Homo sapiens)?
> 10 µM

What measured AC50 is associated with C=C(C)CNc1ccc(C(C)C(=O)O)cc1 (stereo not drawn) [ALMINOPROFEN] on Thromboxane A2 receptor (Homo sapiens)?
> 30 µM

What measured AC50 is associated with Nc1cccc2c1C(=O)N(C1CCC(=O)NC1=O)C2=O (stereo not drawn) [POMALIDOMIDE] on Thromboxane A2 receptor (Homo sapiens)?
> 30 µM

What measured AC50 is associated with O=C(O)[C@@H]1C[C@@H](O)CN1 on Thromboxane A2 receptor (Homo sapiens)?
> 30 µM

What measured AC50 is associated with O=C(O)P(=O)(O)O [FOSCARNET] on Thromboxane A2 receptor (Homo sapiens)?
> 30 µM

What measured AC50 is associated with C[C@H](N[C@@H](CCc1ccccc1)C(=O)O)C(=O)N1Cc2ccccc2C[C@H]1C(=O)O on Thromboxane A2 receptor (Homo sapiens)?
> 30 µM

What measured AC50 is associated with CCCSc1nc(N[C@@H]2C[C@H]2c2ccc(F)c(F)c2)c2nnn([C@@H]3C[C@H](OCCO)[C@@H](O)[C@H]3O)c2n1 [TICAGRELOR] on Thromboxane A2 receptor (Homo sapiens)?
6.38 µM

What measured AC50 is associated with CC[C@]12CCCN3CCc4c(n(c5ccccc45)[C@@](O)(C(=O)OC)C1)[C@@H]32 [VINCAMINE] on Thromboxane A2 receptor (Homo sapiens)?
> 30 µM

What measured AC50 is associated with Cc1ccccc1C(=O)Nc1ccc(C(=O)N2CCCC(O)c3cc(Cl)ccc32)c(C)c1 (stereo not drawn) [TOLVAPTAN] on Thromboxane A2 receptor (Homo sapiens)?
7.42 µM

What measured AC50 is associated with C[C@]12C=CC(=O)C=C1CC[C@H]1[C@@H]3C[C@@H](O)[C@](O)(C(=O)CO)[C@@]3(C)C[C@H](O)[C@@]12F [TRIAMCINOLONE] on Thromboxane A2 receptor (Homo sapiens)?
> 30 µM

What measured AC50 is associated with CN[C@@H]1[C@H](O[C@H]2[C@H](O[C@H]3[C@H](O)[C@@H](O)[C@H](NC(=N)N)[C@@H](O)[C@@H]3NC(=N)N)O[C@@H](C)[C@]2(O)CO)O[C@@H](CO)[C@H](O)[C@H]1O [DIHYDROSTREPTOMYCIN] on Thromboxane A2 receptor (Homo sapiens)?
> 30 µM
